Measured growth inhibition, listed per entry for reference.
# Assay Text: NCI Yeast Anticancer Drug Screen. Data for the mec2-1 strain (AID 157)
# Cond: S. cerevisiae mec2-1 strain, at 50.0 µM, stronger effect = higher value
The panel holds about 79,000 compounds, 15% with a hit somewhere; the sample as a whole holds those more often.
Number only, in %; omit the unit.

Consider the reported growth inhibition for these compounds:
Compound	growth inhibition / %
COC1OC2COC(c3ccccc3)OC2C2N=C(N)N([N+](=O)[O-])C12OS(C)(=O)=O (stereo unspecified)	-5.4
CCCCCCOC(=O)c1ccccc1C(=O)OCCCCCC	-1.75
O=[N+]([O-])C(CO)CCC(CO)[N+](=O)[O-] (stereo unspecified)	-14
OP(=S)(OCc1ccccc1)OCc1ccccc1	19.6
NC(=O)c1ccc(C(=O)Nc2ccc([As](=O)(O)O)cc2)cc1	-26.7

// query growth inhibition value for entry C[N+](C)(C)Cc1cccc([N+](=O)[O-])c1
-5.5

# lookup: growth inhibition of COC(=O)c1nc(-c2ccc3c(n2)C(=O)C(N)=C(OC)C3=O)c(N)c(-c2ccc(OC)c(OC)c2O)c1C
7.25

Name the recorded growth inhibition for Nc1ncnc2c1c(Cl)cn2C1OC(CO)C(O)C1O (stereo unspecified) .
15.2
